experiment-notes: Stability in human liver microsomes
Format: in vitro ADME
condition-label: pH 7.4; human liver microsomes 0.5 mg protein/mL, compound 1.5 μM, NADPH, 37° C.; read-out: Half-life t1/2
The following molecules are listed with their measured half-life at 1.5 μM values.
measure: half-life at 1.5 μM (min)

CCS(=O)(=O)c1ccc([C@H](CO)NC(=O)c2ccc(N3C[C@@H](Oc4ccc(C(F)(F)F)cc4)C[C@H]3COC(F)(F)F)cc2)cc1 ... 600
CCS(=O)(=O)c1ccc([C@H](CCO)NC(=O)c2ccc(N3C[C@@H](Oc4ccc(OC(F)(F)F)cc4)C[C@H]3COC(F)F)cc2)cc1 ... 315
CCS(=O)(=O)c1ccc([C@H](CCO)NC(=O)c2ccc(N3C[C@@H](Oc4ccc(C(F)(F)F)cc4)C[C@H]3COC(F)F)cc2)cc1 ... 416
CCS(=O)(=O)c1ccc([C@H](CO)NC(=O)c2ccc(N3C[C@@H](Oc4ccc(C(F)(F)F)cc4)C[C@H]3COC(F)F)cc2)cc1 ... 212

Data origin: patent US20230067159A1
